- assayProtocol: Determination of solubility
- Format: physicochemical
- measurementParameters: aqueous buffer, thermodynamic from solid; pH = 2.0, PBS buffer, 37° C. 1 h
readoutType: log10 solubility at 1 h (log10 of the value in µg/mL)
Values reflect log10 of reported solubility at 1 h (µg/mL).

Cc1cnc(-n2cccc(C(C)(C)O)c2=O)cc1-n1c(C)cc(OCc2ncc(F)cc2F)cc1=O :: 2.28
Cc1cnc(-n2cccc(C(C)(C)O)c2=O)cc1-n1c(C)cc(OCc2ccccn2)c(Cl)c1=O :: 3.11
Cc1cnc(-n2cccc(C(C)(C)O)c2=O)cc1-n1c(C)cc(OCc2ncccc2F)c(Cl)c1=O :: 2.89
Cc1cnc(-n2cccc(C(C)(C)O)c2=O)cc1-n1c(C)cc(OCc2ncc(F)cc2F)c(Cl)c1=O :: 2.63

As a next step, examine the molecule that follows.
Note log10 solubility at 1 h for the molecule shown: Cc1cnc(-c2ccnc(C(C)(C)O)n2)cc1-n1c(C)cc(OCc2ncc(F)cc2F)c(Cl)c1=O (racemic)
1.75

====

IC50 listing for selected compounds.
- measurementTarget: p38α/MK2 complex (Homo sapiens, UniProt P49137+Q16539)
- Sequence (Q16539 whole entry): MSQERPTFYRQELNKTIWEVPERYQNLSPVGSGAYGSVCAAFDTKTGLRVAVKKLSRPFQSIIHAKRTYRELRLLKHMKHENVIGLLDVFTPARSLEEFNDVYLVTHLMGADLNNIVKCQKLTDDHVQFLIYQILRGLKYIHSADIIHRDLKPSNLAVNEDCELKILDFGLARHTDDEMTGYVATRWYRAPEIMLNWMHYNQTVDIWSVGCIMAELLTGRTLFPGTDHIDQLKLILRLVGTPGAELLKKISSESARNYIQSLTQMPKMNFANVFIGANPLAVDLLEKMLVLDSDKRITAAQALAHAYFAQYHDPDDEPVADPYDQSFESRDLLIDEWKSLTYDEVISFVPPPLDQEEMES
- Sequence (P49137 whole entry): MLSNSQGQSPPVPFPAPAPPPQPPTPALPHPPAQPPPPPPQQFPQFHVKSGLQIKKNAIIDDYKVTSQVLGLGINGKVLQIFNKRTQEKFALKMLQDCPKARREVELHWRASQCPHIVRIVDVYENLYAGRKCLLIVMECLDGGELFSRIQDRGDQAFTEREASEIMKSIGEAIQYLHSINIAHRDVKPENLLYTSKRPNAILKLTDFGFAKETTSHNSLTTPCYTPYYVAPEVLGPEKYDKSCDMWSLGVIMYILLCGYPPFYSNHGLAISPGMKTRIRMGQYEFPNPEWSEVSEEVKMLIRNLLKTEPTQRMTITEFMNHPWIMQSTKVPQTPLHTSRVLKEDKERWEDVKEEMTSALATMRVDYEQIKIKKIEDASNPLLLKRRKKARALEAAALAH
- assayProtocol: p38α/MK2 complex kinase screening experiment (IMAP FP)
- measurementParameters: p38α 0.2 nM, MK2 unactive 1 nM, HSP27 substrate 1 μM, ATP 10 μM; read-out: IC50 value that the compound inhibits p38α/MK2 complex
Entry rule: numbers only, all in nM.

Use these answered entries as a reference point.
Cc1cnc(-n2cccc(C(C)(C)O)c2=O)cc1-n1c(C)cc(OCc2ncc(Br)cc2F)c(Cl)c1=O :: 3.35
Cc1cnc(-n2cccc(C(C)(C)O)c2=O)cc1-n1c(C)cc(OCc2ncc(F)cc2F)c(Cl)c1=O [Comparative example 1] :: 2.6

As a next step, examine the compound that follows.
Note IC50 for the compound shown: Cc1cnc(-n2cccc(C(C)(C)O)c2=O)cc1-n1c(C)cc(OCc2ncc(F)cc2F)c(Cl)c1=O (single isomer, unassigned) [Comparative example 1A, reference compound]
0.53

====

Parameter IC50, tested on p38β (Homo sapiens, UniProt Q15759), listed per item.
Sequence (Q15759 whole entry): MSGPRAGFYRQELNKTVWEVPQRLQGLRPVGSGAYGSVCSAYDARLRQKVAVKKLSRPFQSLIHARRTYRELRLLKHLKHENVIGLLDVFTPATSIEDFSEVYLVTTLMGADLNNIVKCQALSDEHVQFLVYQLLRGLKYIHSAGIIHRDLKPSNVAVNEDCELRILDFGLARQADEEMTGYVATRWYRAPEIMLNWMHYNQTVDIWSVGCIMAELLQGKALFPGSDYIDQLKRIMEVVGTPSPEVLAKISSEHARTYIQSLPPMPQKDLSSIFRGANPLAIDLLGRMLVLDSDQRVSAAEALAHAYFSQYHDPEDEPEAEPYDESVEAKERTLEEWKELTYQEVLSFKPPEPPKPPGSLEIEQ
Entry rule: numbers only, all in µM.

Cc1cnc(-c2ccnc(C(C)(C)O)n2)cc1-n1c(C)cc(OCc2ncc(F)cc2F)c(Cl)c1=O (racemic) :: 5.97

As a next step, examine the compound that follows.
Please tell me the measured IC50 for Cc1cnc(-n2cccc(C(C)(C)O)c2=O)cc1-n1c(C)cc(OCc2ncc(F)cc2F)c(Cl)c1=O ; system: p38β (Homo sapiens, UniProt Q15759).
4.1

====

- measurementTarget: p38α/MK2 complex (Homo sapiens, UniProt P49137+Q16539)
- assayProtocol: p38α/MK2 complex kinase screening experiment (IMAP FP)
- measurementParameters: p38α 0.2 nM, MK2 unactive 1 nM, HSP27 substrate 1 μM, ATP 10 μM; read-out: IC50 value that the compound inhibits p38α/MK2 complex
readoutType: pIC50
Scale: negative log10 of molar concentration, which is what pIC50 denotes.

Use these answered entries as a reference point.
Cc1cnc(-n2cccc(C3CCOCC3)c2=O)cc1-n1c(C)cc(OCc2ncc(F)cc2F)c(Cl)c1=O [Embodiment 40] :: 8.55
CCC(C)(O)c1cccn(-c2cc(-n3c(C)cc(OCc4ncc(F)cc4F)c(Cl)c3=O)c(C)cn2)c1=O (centres unmarked) [Embodiment 26] :: 8.65
Cc1cnc(-n2cccc(C(C)(C)O)c2=O)cc1-n1c(C)cc(OCc2ncc(F)cc2F)c(Br)c1=O [Embodiment 41] :: 8.80
CCc1cnc(-n2cccc(C(C)(C)O)c2=O)cc1-n1c(C)cc(OCc2ncc(F)cc2F)c(Cl)c1=O [Embodiment 42] :: 8.50

Note pIC50 for the compound shown: Cc1cnc(-n2cccc(C(C)(C)O)c2=O)cc1-n1c(C)cc(OCc2cccc(F)c2F)c(Cl)c1=O [Embodiment 17]
8.88

====

- assayProtocol: Pharmacokinetic experiment in Beagle dogs (IV and PO)
- Type: in vivo
- measurementParameters: male, dog, plasma, PO 5 mg/kg vs IV 1 mg/kg
bioavailability listing for selected molecules.
Write the numeric value and append its unit.

Cc1cnc(-c2ccnc(C(C)(C)O)n2)cc1-n1c(C)cc(OCc2ncc(F)cc2F)c(Cl)c1=O (racemic) [Comparative example 1] :: 189%

As a next step, examine the molecule that follows.
Note bioavailability for the molecule shown: Cc1cnc(-n2cccc(C(C)(C)O)c2=O)cc1-n1c(C)cc(OCc2ncc(F)cc2F)c(Cl)c1=O (racemic) [Embodiment 1]
229%

====

- assayProtocol: Pharmacokinetic experiment in Beagle dogs (IV and PO)
- Type: in vivo
- measurementParameters: male, dog, plasma, PO 5 mg/kg
readoutType: AUC(0-t) (ng·h/mL)
Entry rule: numbers only, all in ng·h/mL.

Cc1cnc(-c2ccnc(C(C)(C)O)n2)cc1-n1c(C)cc(OCc2ncc(F)cc2F)c(Cl)c1=O (racemic) [Comparative example 1] :: 14400

As a next step, examine the compound that follows.
Note AUC(0-t) for the compound shown: Cc1cnc(-n2cccc(C(C)(C)O)c2=O)cc1-n1c(C)cc(OCc2ncc(F)cc2F)c(Cl)c1=O [Comparative example 1]
32900

====

AUC(0-t) listing for selected compounds.
- assayProtocol: Pharmacokinetic experiment in Beagle dogs (IV and PO)
- Type: in vivo
- measurementParameters: male, dog, plasma, IV 1 mg/kg
Entry rule: numbers only, all in ng·h/mL.

Cc1cnc(-n2cccc(C(C)(C)O)c2=O)cc1-n1c(C)cc(OCc2ncc(F)cc2F)c(Cl)c1=O (racemic) :: 2870

Note AUC(0-t) for the compound shown: Cc1cnc(-c2ccnc(C(C)(C)O)n2)cc1-n1c(C)cc(OCc2ncc(F)cc2F)c(Cl)c1=O (racemic)
1530

====

- assayProtocol: Pharmacokinetic experiment in Beagle dogs (IV and PO)
- Type: in vivo
- measurementParameters: male, dog, plasma, IV 1 mg/kg
readoutType: clearance (L/h/kg)
Entry rule: numbers only, all in L/h/kg.

Cc1cnc(-c2ccnc(C(C)(C)O)n2)cc1-n1c(C)cc(OCc2ncc(F)cc2F)c(Cl)c1=O (racemic) :: 0.642

As a next step, examine the molecule that follows.
Note clearance for the molecule shown: Cc1cnc(-n2cccc(C(C)(C)O)c2=O)cc1-n1c(C)cc(OCc2ncc(F)cc2F)c(Cl)c1=O (racemic)
0.369
